Tested on: MS2 coat protein
Assay: apparent KD of MS2 coat protein; designed switch direction (-1 OFF switch, 1 ON switch): -1; higher = weaker reporter binding
Details: input ligand: none
Value type: apparent KD of MS2 coat protein (nM)
I only need the number, in nM, no unit after it.

Please review the following examples before continuing.
Residue string	apparent KD of MS2 coat protein (nM)
UCUCAGAUAGGAUAUACGUUGGCGGUAGAUCGGGUUUAAAUACAUGAGGAUCACCCAUGUAGAAGGAUCGAGGG [EX2 C.8] (Eterna round: R97, puzzle: Exclusion 2)	104
UAUGGUAAAGUCAGGAUAUACGUGCAGAAUUCUAGGUAGAAGGGACAUGAGGAUCACCCAUGUAUGGUAGUGUU [Ex4 #44] (Eterna round: R97, puzzle: Brourd's mod of Exclusion 4)	104

Q: What value of apparent KD of MS2 coat protein on MS2 coat protein does UGCCAGAAAGGAUAUACAUGAGGAUCACCCAUGUAACCCUAUGUGAGAGUUCCCGUUUGUAGAAGGUUCUCGUA [EX3 C.22] (Eterna round: R97, puzzle: Exclusion 3) have?
Result: 18.2

Q: Same read-out for ACAUGAGGAUCACCCAUGUCCGGCUGGUCCGUCUCGGCUGUCGAGGAUAUAGCUCGGUGUCCGCGCUAGAAGGUGGGAGCCGGC [Aenatbe mod 72] (Eterna round: R96, puzzle: Exclusion NG 3) ?
Result: 217

Q: Same read-out for AAAUUAGCAAGUAGGUCCGACAUGAGGAUCACCCAUGUUAGCUAAUCUAACGCUGCAUGAGAGUGCGCUCGUCUUAA [Sensor-V1 #20] (Eterna round: R97, puzzle: Sensor, turn-off variant 1) ?
Result: 149

Q: Same read-out for AACCUGAGGCUUUGCUUUAGGUGUACAUGAGGAUCACCCAUGUAGGAUAUGGUAGGCUUUGCUUACCAGAAGGACAUUUAGGUU [JL ENG3 1.15] (Eterna round: R96, puzzle: Exclusion NG 3) ?
Result: 43

Q: Same read-out for CAAAUGGUUUAAGGAUAUUACAUGAGGAUCACCCAUGUUAUCGGGAUGCUUCUCUUAAAAUACGGUAAGAAGGUAGACCUAAUC [Ceveso] (Eterna round: R96, puzzle: Exclusion NG 2) ?
Result: 84.9
